- Tested on: BRSK2
- TEST CONTEXT: Compound Concentration (nM):1000;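 further: KINOMEscan scanMAX binding as percent activity remaining versus control; lower means stronger binding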
METRIC NAME: Percent Control (%)
I only need the number, in %, no unit after it.

Query string: Looking for the measured Percent Control of C/C(Nc1ccc(S(N)(=O)=O)cc1)=C1/C(=O)Nc2ccccc21 [GW335962X] , can you help?
Result string: 81

Query string: How about this molecule: NS(=O)(=O)c1ccc(Nc2ncc(-c3ccccc3)o2)cc1 [GW572399X]
Result string: 100

Query string: How about this molecule: O=C1Nc2ccc(C(=O)c3ccco3)cc2C1=Cc1cc(Cl)c(O)c(Cl)c1 [GW406108X]
Result string: 100

Query string: How about this molecule: Cl.c1ccc(Cc2nc3ccc(Nc4ncnc5ccccc45)cc3[nH]2)cc1 [GR269666A]
Result string: 91

Query string: How about this molecule: CN1CCN(C(=O)c2ccc(NC(=O)Nc3ccc(N(C)c4ccnc(Nc5ccc(CS(C)(=O)=O)cc5)n4)cc3)cc2)CC1.Cl [GW830263A]
Result string: 100

Query string: How about this molecule: C[C@@H](Oc1cc(-n2cnc3ccc(OC4CCN(C)CC4)cc32)sc1C(N)=O)c1ccccc1Cl [GSK579289A]
Result string: 56

Query string: How about this molecule: COc1cc(C=NNc2ncnc3c2cnn3-c2ccccc2)ccc1O [GW513184X]
Result string: 73

Query string: How about this molecule: COc1cc(N2CCN(C(C)C)CC2)ccc1Nc1nc(Nc2ccc(F)cc2C(=O)NC[C@@H](O)CO)c2cc[nH]c2n1 [GSK1392956A]
Result string: 100

###

- Test system: ANKK1
- TEST CONTEXT: Compound Concentration (nM):1000
METRIC NAME: Percent Control
Mention the unit after the number when you answer.

Query string: Looking for the measured Percent Control of CC(C)COC(=O)c1ccc2c(c1)/C(=C/Nc1ccc(S(N)(=O)=O)cc1)C(=O)N2 [GW416981X] , can you help?
Result string: 44%

Query string: How about this compound: COc1cc2ncn(-c3cc(O[C@H](C)c4ccccc4Cl)c(C(N)=O)s3)c2cc1OC [GSK237701A]
Result string: 100%

Query string: How about this compound: C/C(Nc1ccc(S(N)(=O)=O)cc1)=C1/C(=O)Nc2ccccc21 [GW335962X]
Result string: 50%

###

- Test system: ULK2
- TEST CONTEXT: Compound Concentration (nM):1000
Give measured Percent Control for each item. Keep answers brief.
I only need the number, in %, no unit after it.

Query string: Looking for the measured Percent Control of C[C@@H](Oc1cc(-n2cnc3ccc(OC4CCN(C)CC4)cc32)sc1C(N)=O)c1ccccc1Cl [GSK579289A] , can you help?
Result string: 44

Query string: How about this compound: CCn1c(-c2nonc2N)nc2c(C#CC(C)(C)O)nc(OCCNC)cc21.Cl
Result string: 100

Query string: How about this compound: COc1cc(C=NNc2ncnc3c2cnn3-c2ccccc2)ccc1O [GW513184X]
Result string: 100

Query string: How about this compound: COc1ccccc1-c1cc(/C=C2\C(=O)Nc3ncc(Br)cc32)cc(Br)c1O [GW442130X]
Result string: 100

###

- Test system: LOK
- Construct: gene STK10
- TEST CONTEXT: Compound Concentration (nM):1000
Give measured Percent Control for each item. Keep answers brief.
I only need the number, in %, no unit after it.

Query string: Looking for the measured Percent Control of CN(C)c1cc2c(Nc3ccc4c(cnn4Cc4ccccc4)c3)ncnc2cn1 [GW282974X] , can you help?
Result string: 20

Query string: How about this compound: COc1cccc(-c2c[nH]c3c(N/N=C/c4ccncc4)ncnc23)c1 [GW814408X]
Result string: 100

Query string: How about this compound: COc1cc(/C=N/Nc2ncnc3[nH]ncc23)ccc1O [GW578748X]
Result string: 100

Query string: How about this compound: COc1cc(N2CCN(C(C)C)CC2)ccc1Nc1nc(Nc2ccc(F)cc2C(=O)NC[C@@H](O)CO)c2cc[nH]c2n1 [GSK1392956A]
Result string: 100

Query string: How about this compound: Cl.c1ccc(Cc2nc3ccc(Nc4ncnc5ccccc45)cc3[nH]2)cc1 [GR269666A]
Result string: 100

Query string: How about this compound: CCc1ccc(Oc2nccc(-c3c(-c4ccc(F)cc4)ncn3C3CCNCC3)n2)cc1
Result string: 97

Query string: How about this compound: CCn1c(-c2nonc2N)nc2c(C#CC(C)(C)O)nc(OCCNC)cc21.Cl
Result string: 100

Query string: How about this compound: NS(=O)(=O)c1ccc(N/N=C2\C(=O)Nc3ccc(Cl)cc32)cc1 [GW280670X]
Result string: 100

###

Give measured Percent Control for each item. Keep answers brief.
- Test system: ROCK2
- TEST CONTEXT: Compound Concentration (nM):1000
I only need the number, in %, no unit after it.

Query string: Looking for the measured Percent Control of CCc1ccc(Oc2nccc(-c3c(-c4ccc(F)cc4)ncn3C3CCNCC3)n2)cc1 [SB-242719] , can you help?
Result string: 90

Query string: How about this molecule: COc1cccc(-c2c[nH]c3c(N/N=C/c4ccncc4)ncnc23)c1 [GW814408X]
Result string: 73

Query string: How about this molecule: COc1cc2ncnc(Nc3ccc4c(cnn4Cc4ccccc4)c3)c2cc1OC.Cl [GW282449A]
Result string: 100

Query string: How about this molecule: COc1cc(C=NNc2ncnc3c2cnn3-c2ccccc2)ccc1O [GW513184X]
Result string: 88

Query string: How about this molecule: COc1ccc2[nH]c3c4[nH]c5ccc(OC)cc5c4c4c(c3c2c1)C(=O)NC4=O [GW296115X]
Result string: 73

Query string: How about this molecule: CN1CCN(C(=O)c2ccc(NC(=O)Nc3ccc(N(C)c4ccnc(Nc5ccc(CS(C)(=O)=O)cc5)n4)cc3)cc2)CC1.Cl [GW830263A]
Result string: 1.5

Query string: How about this molecule: CCS(=O)(=O)c1ccc(OC)c(Nc2ncc(-c3cccc(F)c3)o2)c1 [GW621970X]
Result string: 100

Query string: How about this molecule: NS(=O)(=O)c1ccc(N/N=C2\C(=O)Nc3ccc(-c4cnco4)cc32)cc1 [GW276655]
Result string: 2.5

Query string: How about this molecule: Nc1ncnc2occ(-c3ccc(NC(=O)Nc4cc(C(F)(F)F)ccc4F)cc3)c12 [GW770249X]
Result string: 27

Query string: How about this molecule: NS(=O)(=O)c1ccc(N/N=C2\C(=O)Nc3ccc(C(=O)NCCc4c[nH]cn4)cc32)cc1 [GW300660X]
Result string: 40

Query string: How about this molecule: Cl.O=C(Nc1ccc(Oc2ccc3[nH]c(NC(=O)c4ccccc4)nc3c2)cc1)Nc1cc(C(F)(F)F)ccc1F [GW709042A]
Result string: 85

Query string: How about this molecule: CC1=C(C(=O)Nc2ccc3[nH]ncc3c2)C(c2ccc3ccccc3c2)CC(=O)N1 (stereo not drawn) [GSK270822A]
Result string: 0

###

Give measured Percent Control for each item. Keep answers brief.
- System: FLT3(D835H)
- TEST CONTEXT: Compound Concentration (nM):1000
I only need the number, in %, no unit after it.

Query string: Looking for the measured Percent Control of CC(C)COC(=O)c1ccc2c(c1)/C(=C/Nc1ccc(S(N)(=O)=O)cc1)C(=O)N2 [GW416981X] , can you help?
Result string: 1.6

Query string: How about this compound: COc1ccc2cc(-c3c(-c4ccncc4)nc(-c4ccc(S(C)(=O)=O)cc4C)n3C)ccc2c1
Result string: 79

Query string: How about this compound: NS(=O)(=O)c1ccc(Nc2ncc(-c3ccccc3)o2)cc1 [GW572399X]
Result string: 70

Query string: How about this compound: COc1cc(C=NNc2ncnc3c2cnn3-c2ccccc2)ccc1O [GW513184X]
Result string: 12

Query string: How about this compound: COc1cc2ncn(-c3cc(O[C@H](C)c4ccccc4Cl)c(C(N)=O)s3)c2cc1OC [GSK237701A]
Result string: 11

Query string: How about this compound: Nc1ncnc2occ(-c3ccc(NC(=O)Nc4cc(C(F)(F)F)ccc4F)cc3)c12 [GW770249X]
Result string: 0.9

Query string: How about this compound: CCn1c(-c2nonc2N)nc2c(C#CC(C)(C)O)nc(OCCNC)cc21.Cl
Result string: 43

Query string: How about this compound: Cc1cc(O)cc(C)c1/C=C/c1cncc(C(N)=O)c1 [GW435821X]
Result string: 77

Query string: How about this compound: CN1CCN(C(=O)c2ccc(NC(=O)Nc3ccc(N(C)c4ccnc(Nc5ccc(CS(C)(=O)=O)cc5)n4)cc3)cc2)CC1.Cl [GW830263A]
Result string: 0.8

Query string: How about this compound: COC(=O)Nc1nc2ccc(Oc3ccc(NC(=O)Nc4cc(C(F)(F)F)ccc4F)cc3)cc2s1.Cl [GW693917A]
Result string: 2.3

Query string: How about this compound: CCS(=O)(=O)c1ccc(OC)c(Nc2ncc(-c3cccc(F)c3)o2)c1 [GW621970X]
Result string: 0.6

Query string: How about this compound: O=C(Nc1n[nH]c2nc(-c3ccc(O)cc3)c(Br)cc12)C1CC1
Result string: 29
